Test: chemical genetic growth profiling, strain panel (AID 1159580);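 further: tested at 20 µM; growth read once vehicle control cultures reached saturation at 30 °C; lower values mean less growth of the strain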
Conditions: S. cerevisiae deletion strains, growth OD, locus YAL026C, strain drs2
Among all 5,500 compounds or so, about 2,000 (36%) were called active. Inconclusive results (about 18%) are left out. No stated cut-off is given here; in the data, active means normalized growth mostly below about 0.91 (no sharp cut-off); inconclusive means no clear call, values can overlap the other calls; inactive means mostly above about 0.92. Some of the results follow.
Possible outcomes: TRUE for active, FALSE for inactive

Molecule: COc1cc2c(cc1OC)[C@@H]1C(=O)c3ccc4oc(C(C)C)cc4c3O[C@@H]1CO2
Discrete Label: FALSE
--
Molecule: COc1cc(NS(=O)(=O)c2ccc(N)cc2)nc(OC)n1
Discrete Label: FALSE
--
Molecule: Cc1cccc(C)c1OCC(C)N (configuration not stated)
Discrete Label: FALSE
--
Molecule: C=C(C)C1CNC(C(=O)O)C1CC(=O)O (configuration not stated)
Discrete Label: FALSE
--
Molecule: COc1ccc2c(C)cc(=O)oc2c1
Discrete Label: FALSE
--
Molecule: CC(=O)NC1SCCC1=O (configuration not stated)
Discrete Label: FALSE
--
Molecule: CC(=O)OCC[N+](C)(C)C
Discrete Label: TRUE
--
Molecule: Cc1[nH]c(C)c(Cl)c(=O)c1Cl
Discrete Label: FALSE
--
Molecule: COc1ccc2c(c1)O[C@@H]1COc3cc(OC)c(OC)cc3[C@@H]1C2=O
Discrete Label: TRUE
--
Molecule: C[C@H]1CC2C([C@@H](O)C[C@@]3(C)C2CC[C@]3(O)C(=O)CO)[C@@]2(C)C=CC(=O)C=C12 (some centres not stated)
Discrete Label: FALSE
--
Molecule: CC(=O)OC(C)(C)[C@@H]1Cc2cc3ccc(=O)oc3cc2O1
Discrete Label: FALSE
--
Molecule: ClC1=C(Cl)C2(Cl)C3C4C=CC(C4)C3C1(Cl)C2(Cl)Cl (configuration not stated)
Discrete Label: FALSE
